Cited source for all entries: the supplement of paper PMC12042874

# Method Summary: amyloid nucleation score (Sup35N fusion, yeast selection) (log enrichment); library NNK1; higher = more nucleation; inactive = no reads after selection;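 note: zero at mode of non-aggregating sequences after 7 days selection at 30°C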
Measured Quantity: amyloid nucleation score

[
  {
    "Sequence Chain": "IIVGEFENLYNSAINVK",
    "Val": "inactive"
  },
  {
    "Sequence Chain": "PIMWCWHAVMSLS",
    "Val": "inactive"
  },
  {
    "Sequence Chain": "KDNLYWKDLSVCLRRFVGLH",
    "Val": "inactive"
  },
  {
    "Sequence Chain": "FLYWSHSYFLITWFRCVLEI",
    "Val": "inactive"
  },
  {
    "Sequence Chain": "RFMTHLVRRLYAFGMSF",
    "Val": "inactive"
  }
]

Now for the sequence whose amyloid nucleation score we want.
Input: amyloid nucleation score for "PSLYACGQKPRSEALDARWL" ?
Output: inactive

====

# Method Summary: amyloid nucleation score (Sup35N fusion, yeast selection) (log enrichment); library NNK1; higher = more nucleation; inactive = no reads after selection
Measured Quantity: amyloid nucleation score
// no unit string in output, number only

Answered cases to consult:
[
  {
    "Substance": "CSTQRVPGGGLGKSWL",
    "amyloid nucleation score": 0.18
  },
  {
    "Substance": "HLWPVVSKGWDGFRCVSQVF",
    "amyloid nucleation score": -1.25
  },
  {
    "Substance": "PHFLGQFYSDVPCDCGLCWY",
    "amyloid nucleation score": 0.193
  }
]

Input: Which amyloid nucleation score value belongs to "GIETRMDWEV" ?
Output: 1.67

Input: Consider next the substance "FWYFMLNMVQPRY" in the same way.
Output: -0.198

Input: For "CQVPSGESNDSPVLRHI" then?
Output: -0.138

Input: Another substance to look at: "TDSSREGVNLHKLLFTFAMR"
Output: 0.137

Input: Can you check "SFCLFNVIYQFIGKRCPNSG" next?
Output: 3.82

====

# Method Summary: amyloid nucleation score (Sup35N fusion, yeast selection) (log enrichment); library NNK1; higher = more nucleation; inactive = no reads after selection
Measured Quantity: amyloid nucleation score

[
  {
    "Substance": "GKPWSSCHENSLINMDHSDV",
    "Val": "inactive"
  },
  {
    "Substance": "VMNENI",
    "Val": "inactive"
  },
  {
    "Substance": "VPSLSPFGRKMFHIRSL",
    "Val": "inactive"
  }
]

====

Reported amyloid nucleation score values for a set of substances
# Method Summary: amyloid nucleation score (Sup35N fusion, yeast selection) (log enrichment); library NNK2; higher = more nucleation; inactive = no reads after selection

Worked set:
[
  {
    "Substance": "SCLSGFTIWQVSLRYCASFG",
    "Measured Quantity": "amyloid nucleation score",
    "Val": 0.312
  },
  {
    "Substance": "PYLFMESMKD",
    "Measured Quantity": "amyloid nucleation score",
    "Val": 0.117
  },
  {
    "Substance": "CDMEHTV",
    "Measured Quantity": "amyloid nucleation score",
    "Val": -0.302
  },
  {
    "Substance": "MCTAFSDNHHTRTYPAPKSH",
    "Measured Quantity": "amyloid nucleation score",
    "Val": 0.196
  },
  {
    "Substance": "LLLNNLVYFSLRVYLLNFCL",
    "Measured Quantity": "amyloid nucleation score",
    "Val": -2.07
  },
  {
    "Substance": "ESLMKSYVLSAYMCGPIGGR",
    "Measured Quantity": "amyloid nucleation score",
    "Val": 1.03
  }
]

Input: // query amyloid nucleation score value for entry "LERGENEVRWTKKLRIKFVF"
Output: -0.228

Input: What do we get for "KMSVLG" ?
Output: -0.936

Input: Also "GHCLSYMCVGLA" ?
Output: 4.3

Input: Same question for "VSYTHTETTPGLTSLWLVLM" please.
Output: 6.89

Input: Now this one: "MDSMWPSVGGALKSRSGVFR"
Output: -0.126

====

# Method Summary: amyloid nucleation score (Sup35N fusion, yeast selection) (log enrichment); library NNK1; higher = more nucleation; inactive = no reads after selection
Category key, based on recorded amyloid nucleation score: lower segment (below 0.01), middle segment (0.01 to below 1), upper segment (1 or more)

[
  {
    "Substance": "HCVEVSYKTSYAKELSFRVC",
    "Class Name": "lower segment"
  }
]

Input: Please report the category associated with "LGLDGCSSMLEEDFCR" , nothing else.
Output: middle segment

Input: Same again, this time with "RAGQVRNNDTSVEFAMCGRW"
Output: middle segment

Input: Same question for "NSNMGCSVI" please.
Output: lower segment

Input: Proceed to "SRNRLFVRRVRLANSLSFNA"
Output: lower segment

====

# Method Summary: amyloid nucleation score (Sup35N fusion, yeast selection) (log enrichment); library NNK3; higher = more nucleation; inactive = no reads after selection
Measured Quantity: amyloid nucleation score

Example substances with recorded amyloid nucleation score:
[
  {
    "Substance": "CLFGHGY",
    "amyloid nucleation score": "inactive"
  },
  {
    "Substance": "YWMPIDLGFSSLNWPESSRS",
    "amyloid nucleation score": "inactive"
  },
  {
    "Substance": "ADWRIKFYGCGDLGLFWES",
    "amyloid nucleation score": "inactive"
  },
  {
    "Substance": "ASSSNGIVTFNNPR",
    "amyloid nucleation score": "inactive"
  },
  {
    "Substance": "YWAQLPNPPYLLCPH",
    "amyloid nucleation score": "inactive"
  }
]

Input: Would you kindly share the measured amyloid nucleation score for "SGSSVPSLYCVDYAVDG" ?
Output: inactive

Input: Subsequent entry: "SAWSTECYVMCSM"
Output: inactive

Input: Consider next the substance "GMRFRLMEKFHRLFYYSNMT" in the same way.
Output: inactive

Input: Could you do the same for "ENALARMLAEEI" , please?
Output: inactive

Input: Consider next the substance "YDNVVYLIVGHYG" in the same way.
Output: inactive

Input: For "FIIITKAFYRGTKMGGNTYS" then?
Output: -0.427

Input: Thanks! And "GVLVTANLYFWMEPSALPAM" ?
Output: inactive

Input: Consider next the substance "VHSCEMSSPPTILKVKLVYL" in the same way.
Output: inactive

Input: One more substance: "NMKSCFHRMDPHWGTGFHSL"
Output: inactive

Input: // query: "SYFTMTDSSFSVAFANLLVY"
Output: 0.289

Input: // query: "EPRGCYRQMLHKLIMS"
Output: inactive

Input: Can you handle "DGLYSTNQRSIAPHLTQPID" next?
Output: inactive

====

Catalogue of amyloid nucleation score values
# Method Summary: amyloid nucleation score (Sup35N fusion, yeast selection) (log enrichment); library NNK1; higher = more nucleation; inactive = no reads after selection
Give a plain numeric answer without units written out.

[
  {
    "Sequence Chain": "YLFPDVTRICCMGWSFTLLS",
    "Val": 5.27
  },
  {
    "Sequence Chain": "RHRDLGWRVIRWRAFMTSLW",
    "Val": -1.31
  },
  {
    "Sequence Chain": "VLGMAEATADFSPIWVSKCS",
    "Val": 0.455
  },
  {
    "Sequence Chain": "MVSHKDQRIGPLLASVAHVR",
    "Val": -1.69
  },
  {
    "Sequence Chain": "FQSLGTFLDIQLCGHNLVAE",
    "Val": 0.537
  },
  {
    "Sequence Chain": "AVVHSRYRVSVCGDQDLSPL",
    "Val": -0.086
  },
  {
    "Sequence Chain": "DWRYPLAYPVFSIDSRMFD",
    "Val": -0.312
  },
  {
    "Sequence Chain": "NCVQARFDERCVRGLGCKFY",
    "Val": -0.724
  }
]

Input: GET /values?readout=amyloid nucleation score&item= "VHRQMEMIIKIVWTRAYAFT"
Output: 2.33

Input: What would you report for "SVTERCKLQSHHDMVGGM" ?
Output: 3.37

Input: Item: "GAIIFLSCGWSKCFCTLWVI"
Output: -0.381

Input: What about "CNFSQYMRVHHTSYLEPTDH" ?
Output: 3.22

====

# Method Summary: amyloid nucleation score (Sup35N fusion, yeast selection) (log enrichment); library NNK1; higher = more nucleation; inactive = no reads after selection
Measured Quantity: amyloid nucleation score

Consider the reported amyloid nucleation score for these sequences:
[
  {
    "Sequence Chain": "GFELEAIKEYFGCWPSHYRF",
    "Val": "inactive"
  },
  {
    "Sequence Chain": "QWRFKVRVHVEVSSSGVCSI",
    "Val": "inactive"
  },
  {
    "Sequence Chain": "YFAHGSWRLSCFLVYWLMRP",
    "Val": "inactive"
  },
  {
    "Sequence Chain": "VMFTTRSWSGDNVFLCV",
    "Val": "inactive"
  },
  {
    "Sequence Chain": "PFYSETDDSRYIDVRRVFCF",
    "Val": "inactive"
  }
]

In the following, a different sequence is considered.
Input: For the sequence "SFHLSQFYKNTHMWLIVFES" , what amyloid nucleation score is on record?
Output: inactive
